- Tested on: T-47D breast
- measurement notes: NCI tumour cell line growth inhibition, 48 h
endpoint label: TGI

compound	TGI
CC1=C2C(=C[C@@](C)(CO)[C@@H]2O)C(=O)[C@](C)(O)C12CC2	0.0545 µM
CCOC(=O)N1CCN(Cc2cc(=O)n3ccc(C)cc3n2)CC1	> 100 µM

Item O=C(/C=C/c1ccc(O)cc1)c1ccc(O)cc1 has what recorded TGI?
> 100 µM

And the next one, CC(=O)Nn1c(=S)[nH]c2ccccc21 ?
> 100 µM

====

- System: CAKI-1 renal
- measurement notes: NCI tumour cell line growth inhibition, 48 h
Recorded TGI values for a group of molecules are listed next.
Enter your answer as a number in µM; do not include the unit.

CCCCCCCCCCn1cc[n+](C)c1 23.5
C=CC1(CC/C(=C\[N+](=O)[O-])c2ccc(OC)c(OC)c2)OCC(C)(C)CO1 52.9

Item Nc1nccc(-c2c[nH]c3cc(Br)ccc23)n1 has what recorded TGI?
35

====

- System: UACC-62 melanoma
- measurement notes: NCI tumour cell line growth inhibition, 48 h; in the data active means GI50 below about 0.43 µM; inactive means the rest
One label from this list, please: 1 (active), 0 (inactive)

Dear all, I need the recorded test outcome for COc1ccc(CN2C(=O)/C(=C\c3cc(OC)c(OC)c(OC)c3)c3ccccc32)cc1 , thank you.
0

And the next one, CCN(Cc1ccc(F)cc1)c1cc(Cl)c(CO)c(Cl)c1 ?
0

And the next one, CCCOc1cc2ccccc2cc1C(=O)Nc1nc(N)c2c(ccc3nccc32)[nH]1 ?
1

And the next one, CN1CC[C@@H](NC(=O)Nc2ccc(C#N)cc2)C[C@@H]1c1nc2ccccc2[nH]1 ?
0

And the next one, CC1SC(c2ccc(F)cc2)N(NC(=O)C(O)c2ccccc2)C1=O (stereo unspecified) ?
0

And the next one, CCN1C(=O)N(c2ccccc2)C2NC(=S)N(/N=C/C=C/c3ccccc3OC)C21 (stereo unspecified) ?
1

====

- Tested on: SK-MEL-2 melanoma
- measurement notes: NCI tumour cell line growth inhibition, 48 h
endpoint label: TGI (µM)
Enter your answer as a number in µM; do not include the unit.

Below, 3 compounds whose answers are already recorded.
compound	endpoint label	number
Oc1ccc(-c2nc3ccc(Br)cc3s2)cc1	TGI	33.3
[N-]=[N+]=NC(c1ccccc1)(c1ccccc1)c1ccccc1	TGI	29.3
COCCOc1ccc(-c2nc3ccc(-c4nc5ccc(N6CCN(C)CC6)cc5[nH]4)cc3[nH]2)cc1	TGI	3.59

Item C[C@]12CCC3C4=C(CCC3C1CCC2=O)C(=O)[C@H]1O[C@H]1C4=O (stereo not given in full) has what recorded TGI?
26.5

And the next one, CC1=C2C(=C[C@@](C)(CO)[C@@H]2O)C(=O)[C@](C)(O)C12CC2 ?
0.0297

And the next one, C=C1C(=O)O[C@H]2[C@H]1CC/C(COC(=O)NCc1ccc(Cn3c(=O)sn(-c4ccc(OC)cc4)c3=O)cc1)=C\CC[C@@]1(C)O[C@@H]21 ?
9.46

====

- Test system: NCI-H522 lung
- measurement notes: NCI tumour cell line growth inhibition, 48 h; in the data active means GI50 below about 0.43 µM; inactive means the rest
Where a SMILES comes first, the peptide text is derived from it. [ ]: non-standard residue; d: D form. The star is where a group is joined. ξ: configuration not given here. X3 = COc1ccc(C(N*)c2ccc(OC)cc2)cc1; NMeF = CN[C@@H](Cc1ccccc1)C(=O)O; NMeD = CN[C@@H](CC(=O)O)C(=O)O; NMeV = CN[C@H](C(=O)O)C(C)C; ξNMeV = CNC(C(=O)O)C(C)C; Boc = CC(C)(C)OC(=O)*; ξNMeA = CNC(C)C(=O)O; ξV = CC(C)C(N)C(=O)O
One label from this list, please: true = active, false = inactive

Examples with answers:
molecule	classification
CCN(Cc1ccc(F)cc1)c1cc(Cl)c(CO)c(Cl)c1	false
Cc1nnc(NC(=O)c2nc(S(=O)(=O)Cc3ccc(F)cc3)ncc2Cl)s1	false
COc1ccc(C(NC(=O)C[C@@H](C(=O)N(C)C(C)C(=O)O)N(C)C(=O)[C@@H]2CCCN2C(=O)[C@H](C(C)C)N(C)C(=O)C(C(C)C)N(C)C(=O)[C@H](Cc2ccccc2)N(C)C(=O)C(NC(=O)OC(C)(C)C)C(C)C)c2ccc(OC)cc2)cc1 (some centres not stated) (Boc-[ξV][NMeF][ξNMeV][NMeV]P[NMeD](X3)[ξNMeA]-OH)	false
C=C1C(=O)O[C@H]2[C@H]1CC/C(COC(=O)NCc1ccc(Cn3c(=O)sn(-c4ccc(OC)cc4)c3=O)cc1)=C\CC[C@@]1(C)O[C@@H]21	false

Dear all, I need the recorded test outcome for COc1cc(-c2ccc3cc(OC)c(OC)c(OC)c3c2)cc(OC)c1OC , thank you.
false

And the next one, CCCOc1cc2ccccc2cc1C(=O)Nc1nc(N)c2c(ccc3nccc32)[nH]1 ?
true

And the next one, C[C@]12CCC3c4ccc(O)cc4CCC3C1CC[C@@]2(O)CNC(=O)/C=C/c1ccc(O)c(O)c1 (some centres not stated) ?
false
